molecular target: Fibroblast growth factor receptor 1 (Homo sapiens) (UniProt P11362); experiment: Inhibition of human recombinant FGFR1 (456 to 765 residues) at 100 nM in presence of [gamma33P]ATP by radiometric assay relative to control
Sequence (P11362 22-822 limits assumed): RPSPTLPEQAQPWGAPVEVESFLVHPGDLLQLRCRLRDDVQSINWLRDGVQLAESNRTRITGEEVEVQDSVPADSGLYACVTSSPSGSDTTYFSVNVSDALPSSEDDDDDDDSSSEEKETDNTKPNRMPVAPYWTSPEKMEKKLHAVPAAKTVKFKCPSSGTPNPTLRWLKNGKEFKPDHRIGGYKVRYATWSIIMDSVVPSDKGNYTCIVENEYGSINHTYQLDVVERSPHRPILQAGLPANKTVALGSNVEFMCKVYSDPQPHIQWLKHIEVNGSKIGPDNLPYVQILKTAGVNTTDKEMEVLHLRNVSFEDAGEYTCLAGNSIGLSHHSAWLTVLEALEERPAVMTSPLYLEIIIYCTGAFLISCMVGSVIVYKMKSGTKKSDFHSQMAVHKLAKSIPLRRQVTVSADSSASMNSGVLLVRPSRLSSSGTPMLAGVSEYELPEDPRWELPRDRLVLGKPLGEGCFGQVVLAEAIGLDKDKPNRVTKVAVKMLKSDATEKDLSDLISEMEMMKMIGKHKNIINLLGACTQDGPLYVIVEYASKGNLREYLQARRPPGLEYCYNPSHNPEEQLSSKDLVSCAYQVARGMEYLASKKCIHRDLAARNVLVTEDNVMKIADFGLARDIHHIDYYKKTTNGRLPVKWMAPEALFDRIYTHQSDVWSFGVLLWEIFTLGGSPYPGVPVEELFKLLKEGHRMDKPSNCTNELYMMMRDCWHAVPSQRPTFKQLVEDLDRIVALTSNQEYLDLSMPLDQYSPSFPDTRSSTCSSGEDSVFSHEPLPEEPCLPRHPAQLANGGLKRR
A collection of compounds and their measured inhibition
test-readout: inhibition

[
  {
    "smiles-notation": "C=CC(=O)NCCNc1c(NCc2ccc(Nc3ncc(Cl)c(NCc4cccnc4N(C)S(C)(=O)=O)n3)cc2)c(=O)c1=O",
    "test-readout": "inhibition",
    "meas-value": "32.5%"
  },
  {
    "smiles-notation": "CNC(=O)c1ccccc1Nc1nc(Nc2ccc(CNc3c(NCCNC(=O)/C(C#N)=C/C(C)C)c(=O)c3=O)cc2)ncc1Cl",
    "test-readout": "inhibition",
    "meas-value": "83.5%"
  },
  {
    "smiles-notation": "C=CC(=O)NCCNc1c(NCc2ccc(Nc3ncc(Cl)c(Nc4ccccc4C(=O)NC)n3)cc2)c(=O)c1=O",
    "test-readout": "inhibition",
    "meas-value": "87.1%"
  },
  {
    "smiles-notation": "C=CC(=O)NCCNc1c(NCc2ccc(Nc3ncc(C(F)(F)F)c(Nc4ccccc4C(=O)NC)n3)cc2)c(=O)c1=O",
    "test-readout": "inhibition",
    "meas-value": "88.3%"
  }
]

====

biological target: Protein-tyrosine kinase 2-beta (Homo sapiens) (UniProt Q14289); assay: Inhibition of recombinant human full length PYK2 at 100 nM in presence of [gamma32P]-ATP by radiometric analysis relative to control
Sequence (Q14289 whole entry, looked up): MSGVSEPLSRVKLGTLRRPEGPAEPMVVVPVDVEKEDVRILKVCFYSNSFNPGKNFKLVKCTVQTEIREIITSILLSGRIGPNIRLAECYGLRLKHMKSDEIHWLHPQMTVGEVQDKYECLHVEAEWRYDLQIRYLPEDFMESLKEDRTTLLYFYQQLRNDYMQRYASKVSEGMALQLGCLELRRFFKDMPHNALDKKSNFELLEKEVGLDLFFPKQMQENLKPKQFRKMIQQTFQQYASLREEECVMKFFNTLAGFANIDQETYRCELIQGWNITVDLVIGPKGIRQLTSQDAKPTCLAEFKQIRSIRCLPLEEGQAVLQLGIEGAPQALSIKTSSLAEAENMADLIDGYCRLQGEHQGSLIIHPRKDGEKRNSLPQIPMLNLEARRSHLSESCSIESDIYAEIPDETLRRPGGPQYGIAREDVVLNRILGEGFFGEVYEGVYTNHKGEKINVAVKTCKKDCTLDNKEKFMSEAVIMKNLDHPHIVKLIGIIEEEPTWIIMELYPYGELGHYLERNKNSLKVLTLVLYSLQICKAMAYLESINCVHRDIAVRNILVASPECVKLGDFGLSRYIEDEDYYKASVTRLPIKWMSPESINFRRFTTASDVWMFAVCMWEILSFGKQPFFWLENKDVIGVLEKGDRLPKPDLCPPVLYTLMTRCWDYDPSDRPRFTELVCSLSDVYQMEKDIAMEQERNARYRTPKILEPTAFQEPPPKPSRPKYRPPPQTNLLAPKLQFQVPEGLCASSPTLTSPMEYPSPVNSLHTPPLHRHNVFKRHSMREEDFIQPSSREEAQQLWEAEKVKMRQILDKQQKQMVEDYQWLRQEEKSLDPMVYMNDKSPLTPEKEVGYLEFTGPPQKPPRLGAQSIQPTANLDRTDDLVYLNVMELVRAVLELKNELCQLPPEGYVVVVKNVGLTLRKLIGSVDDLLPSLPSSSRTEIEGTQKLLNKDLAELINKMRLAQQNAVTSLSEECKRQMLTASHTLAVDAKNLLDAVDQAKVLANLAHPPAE
Parameter: inhibition. Scope: all listed entries.
test-readout: inhibition (%)

[
  {
    "smiles-notation": "C=CC(=O)NCCNc1c(NCc2ccc(Nc3ncc(Cl)c(Nc4ccccc4C(=O)NC)n3)cc2)c(=O)c1=O",
    "meas-value": 97.6
  },
  {
    "smiles-notation": "CNC(=O)c1ccccc1Nc1nc(Nc2ccc(CNc3c(NCCNC(=O)/C(C#N)=C/C(C)C)c(=O)c3=O)cc2)ncc1Cl",
    "meas-value": 97.5
  },
  {
    "smiles-notation": "C=CC(=O)NCCNc1c(NCc2ccc(Nc3ncc(Cl)c(NCc4cccnc4N(C)S(C)(=O)=O)n3)cc2)c(=O)c1=O",
    "meas-value": 68.3
  },
  {
    "smiles-notation": "C=CC(=O)NCCNc1c(NCc2ccc(Nc3ncc(C(F)(F)F)c(Nc4ccccc4C(=O)NC)n3)cc2)c(=O)c1=O",
    "meas-value": 99.8
  }
]

====

target: Mast/stem cell growth factor receptor Kit (Homo sapiens); test: Inhibition of human recombinant c-kit at 100 nM in presence of [gamma33P]ATP by radiometric assay relative to control
test-readout: inhibition (%)

[
  {
    "smiles-notation": "C=CC(=O)NCCNc1c(NCc2ccc(Nc3ncc(Cl)c(NCc4cccnc4N(C)S(C)(=O)=O)n3)cc2)c(=O)c1=O",
    "study-target": "Mast/stem cell growth factor receptor Kit (Homo sapiens)",
    "meas-value": 0
  },
  {
    "smiles-notation": "C=CC(=O)NCCNc1c(NCc2ccc(Nc3ncc(Cl)c(Nc4ccccc4C(=O)NC)n3)cc2)c(=O)c1=O",
    "study-target": "Mast/stem cell growth factor receptor Kit (Homo sapiens)",
    "meas-value": 0.2
  },
  {
    "smiles-notation": "CNC(=O)c1ccccc1Nc1nc(Nc2ccc(CNc3c(NCCNC(=O)/C(C#N)=C/C(C)C)c(=O)c3=O)cc2)ncc1Cl",
    "study-target": "Mast/stem cell growth factor receptor Kit (Homo sapiens)",
    "meas-value": 0
  },
  {
    "smiles-notation": "C=CC(=O)NCCNc1c(NCc2ccc(Nc3ncc(C(F)(F)F)c(Nc4ccccc4C(=O)NC)n3)cc2)c(=O)c1=O",
    "study-target": "Mast/stem cell growth factor receptor Kit (Homo sapiens)",
    "meas-value": 0.1
  }
]
